FYI, the data here is from ChEMBL document CHEMBL1275305.

tested on: PC-3; test: Cytotoxicity against human PC3 cells after 72 hrs by MTT assay; type: functional, cell-based; settings: PC-3, 72 h
hey, just use t if measured IC50 is less than 10 µM, otherwise f

>  <Compound>
CC(C)OP(=O)(OC(C)C)C(NC(=S)N[C@@H](Cc1ccccc1)C(=O)NCc1ccc(F)cc1)c1ccccc1 (stereo partly specified)

>  <Label value>
f

$$$$
>  <Compound>
CCOP(=O)(OCC)C(NC(=S)N[C@H](Cc1ccccc1)C(=O)NCc1ccccc1)c1ccccc1 (stereo partly specified)

>  <Label value>
f

$$$$
>  <Compound>
COc1cccc2c1C(=O)c1c(O)c3c(c(O)c1C2=O)C[C@@](O)(C(=O)CO)C[C@@H]3O[C@H]1C[C@H](N)[C@H](O)[C@H](C)O1

>  <Label value>
t

$$$$
>  <Compound>
CC(C)OP(=O)(OC(C)C)C(NC(=S)N[C@@H](Cc1ccccc1)C(=O)NCc1ccccc1)c1ccccc1 (stereo partly specified)

>  <Label value>
f

$$$$
>  <Compound>
CCOP(=O)(OCC)C(NC(=S)N[C@H](Cc1ccccc1)C(=O)NCc1ccccc1F)c1ccccc1 (stereo partly specified)

>  <Label value>
t

$$$$
>  <Compound>
CCCOP(=O)(OCCC)C(NC(=S)N[C@@H](Cc1ccccc1)C(=O)NCc1ccc(F)cc1)c1ccccc1 (stereo partly specified)

>  <Label value>
f

$$$$
